Form field: RLU (one value per entry).
- TARGET_OR_TEST_SYSTEM: mouse Tas2r108 (Mus musculus)
- Construct: expressed in transfected cells; host or cells: HEK293T-Gα16gust44
- Sequence (Q9JKT3 whole entry): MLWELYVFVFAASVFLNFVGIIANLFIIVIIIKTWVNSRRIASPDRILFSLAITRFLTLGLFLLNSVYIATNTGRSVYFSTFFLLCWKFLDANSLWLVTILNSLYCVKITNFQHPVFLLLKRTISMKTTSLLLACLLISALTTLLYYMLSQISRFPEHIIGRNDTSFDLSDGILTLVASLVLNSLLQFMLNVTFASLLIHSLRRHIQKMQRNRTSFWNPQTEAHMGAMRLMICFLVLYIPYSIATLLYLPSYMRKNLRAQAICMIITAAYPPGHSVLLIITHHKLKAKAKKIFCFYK
- EXPERIMENTAL_PROTOCOL: Calcium imaging assay (FLIPR), HEK293T-Gα16gust44 cells transfected with mouse Tas2r108
- Assay type: cell-based
- DETAILS: Time 347.562 s
Numbers only here, please. The scale is RLU.

- COMPOUND_STRUCTURE: "C[C@H](CCC(=O)O)[C@H]1CC[C@H]2[C@@H]3CC[C@@H]4C[C@H](O)CC[C@]4(C)[C@H]3C[C@H](O)[C@]12C"
  RLU / RLU: 429.258
- COMPOUND_STRUCTURE: "C[C@H](CCC(=O)NCCS(=O)(=O)O)[C@H]1CC[C@H]2[C@@H]3[C@H](O)C[C@@H]4C[C@H](O)CC[C@]4(C)[C@H]3C[C@H](O)[C@]12C"
  RLU / RLU: 268.956
- COMPOUND_STRUCTURE: "C[C@H](CCC(=O)NCC(=O)O)[C@H]1CC[C@H]2[C@@H]3[C@H](O)C[C@@H]4C[C@H](O)CC[C@]4(C)[C@H]3C[C@H](O)[C@]12C"
  RLU / RLU: 201.017

For the next question, use this compound.
In: Output RLU of C[C@H](CCC(=O)O)[C@H]1CC[C@H]2[C@@H]3[C@H](O)C[C@@H]4C[C@H](O)CC[C@]4(C)[C@H]3C[C@H](O)[C@]12C
Out: 175.395

====

- TARGET_OR_TEST_SYSTEM: mouse Tas2r144 (Mus musculus)
- Construct: expressed in transfected cells; host or cells: HEK293T-Gα16gust44
- Sequence (Q7TQB8 whole entry): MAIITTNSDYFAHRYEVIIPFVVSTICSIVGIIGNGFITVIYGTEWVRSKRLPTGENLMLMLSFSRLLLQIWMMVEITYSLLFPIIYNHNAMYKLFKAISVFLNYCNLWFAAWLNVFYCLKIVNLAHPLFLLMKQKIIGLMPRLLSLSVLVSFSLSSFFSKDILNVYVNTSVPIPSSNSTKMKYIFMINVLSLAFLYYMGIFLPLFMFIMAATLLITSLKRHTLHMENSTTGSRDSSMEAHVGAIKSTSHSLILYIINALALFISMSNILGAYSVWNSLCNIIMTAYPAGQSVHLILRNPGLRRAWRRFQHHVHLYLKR
- EXPERIMENTAL_PROTOCOL: Calcium imaging assay (FLIPR), HEK293T-Gα16gust44 cells transfected with mouse Tas2r144
- Format: cell-based
- DETAILS: Time 34.781 s
QUANTITY_KIND: RLU (RLU)
Numbers only here, please. The scale is RLU.

In: Output RLU of C[C@H](CCC(=O)NCCS(=O)(=O)O)[C@H]1CC[C@H]2[C@@H]3[C@H](O)C[C@@H]4C[C@H](O)CC[C@]4(C)[C@H]3C[C@H](O)[C@]12C [Taurocholic Acid, taurocholic acid]
Out: 329.647

In: Output RLU of C[C@H](CCC(=O)NCC(=O)O)[C@H]1CC[C@H]2[C@@H]3[C@H](O)C[C@@H]4C[C@H](O)CC[C@]4(C)[C@H]3C[C@H](O)[C@]12C [Glycocholic Acid, glycocholic acid]
Out: 240.201

In: Output RLU of C[C@H](CCC(=O)NCCS(=O)(=O)O)[C@H]1CC[C@H]2[C@@H]3CC[C@@H]4C[C@H](O)CC[C@]4(C)[C@H]3CC[C@]12C [Taurolithocholic Acid, taurolithocholic acid]
Out: 105.382

In: Output RLU of C[C@H](CCC(=O)O)[C@H]1CC[C@H]2[C@@H]3[C@H](O)C[C@@H]4C[C@H](O)CC[C@]4(C)[C@H]3C[C@H](O)[C@]12C [Cholic Acid, cholic acid]
Out: 499.119

====

- TARGET_OR_TEST_SYSTEM: mouse Tas2r105 (Mus musculus, UniProt Q9JKT4)
- Construct: expressed in transfected cells; host or cells: HEK293T-Gα16gust44
- Sequence (Q9JKT4 1-300): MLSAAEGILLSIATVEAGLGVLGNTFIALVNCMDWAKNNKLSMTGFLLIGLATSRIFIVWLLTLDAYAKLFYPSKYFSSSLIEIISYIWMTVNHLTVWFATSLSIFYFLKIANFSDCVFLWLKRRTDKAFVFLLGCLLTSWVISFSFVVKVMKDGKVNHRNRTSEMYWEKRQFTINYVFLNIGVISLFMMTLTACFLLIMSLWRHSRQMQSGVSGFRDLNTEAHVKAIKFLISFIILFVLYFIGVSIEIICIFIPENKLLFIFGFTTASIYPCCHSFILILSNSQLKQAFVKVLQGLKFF
- EXPERIMENTAL_PROTOCOL: Calcium imaging assay (FLIPR), HEK293T-Gα16gust44 cells transfected with mouse Tas2r105
- Format: cell-based
- DETAILS: Time 80.781 s
QUANTITY_KIND: RLU (RLU)
Numbers only here, please. The scale is RLU.

- COMPOUND_STRUCTURE: "C[C@H](CCC(=O)O)[C@H]1CC[C@H]2[C@@H]3CC[C@@H]4C[C@H](O)CC[C@]4(C)[C@H]3C[C@H](O)[C@]12C"
  RLU, RLU: 59.5249
- COMPOUND_STRUCTURE: "C[C@H](CCC(=O)O)[C@H]1CC[C@H]2[C@@H]3CC[C@@H]4C[C@H](O)CC[C@]4(C)[C@H]3CC[C@]12C"
  RLU, RLU: 151.243

In: Please look at C[C@H](CCC(=O)O)[C@H]1CC[C@H]2[C@@H]3[C@H](O)C[C@@H]4C[C@H](O)CC[C@]4(C)[C@H]3C[C@H](O)[C@]12C and tell me its recorded RLU on mouse Tas2r105 (Mus musculus, UniProt Q9JKT4).
Out: 513.812

In: Please look at C[C@H](CCC(=O)NCC(=O)O)[C@H]1CC[C@H]2[C@@H]3[C@H](O)C[C@@H]4C[C@H](O)CC[C@]4(C)[C@H]3C[C@H](O)[C@]12C and tell me its recorded RLU on mouse Tas2r105 (Mus musculus, UniProt Q9JKT4).
Out: 487.49

====

- TARGET_OR_TEST_SYSTEM: human TAS2R4 (Homo sapiens, UniProt Q9NYW5)
- Construct: expressed in transfected cells; host or cells: HEK293T-Gα16gust44
- Sequence (Q9NYW5 whole entry): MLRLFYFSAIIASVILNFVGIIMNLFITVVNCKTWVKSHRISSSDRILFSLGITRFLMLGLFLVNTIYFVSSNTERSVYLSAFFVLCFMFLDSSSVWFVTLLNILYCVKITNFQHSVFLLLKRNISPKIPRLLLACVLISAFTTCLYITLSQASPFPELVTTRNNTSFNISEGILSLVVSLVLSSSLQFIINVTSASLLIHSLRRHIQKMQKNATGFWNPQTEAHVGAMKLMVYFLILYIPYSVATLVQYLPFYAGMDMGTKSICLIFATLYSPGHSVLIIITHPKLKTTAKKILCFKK
- EXPERIMENTAL_PROTOCOL: Calcium imaging assay (FLIPR), HEK293T-Gα16gust44 cells transfected with human TAS2R4; note: test concentration or dose not given here
- Type: cell-based
- DETAILS: Time (s) 311.547
- Procedure: This set of bile acids was chosen because of their commercial availability in high purities, their diversity within the class of bile acids and their previous detection and quantitation in human blood. Stock solutions were prepared in DMSO. […] Measured data were negative control corrected by subtracting the signal of the mock-transfected cells and exported to Microsoft Excel using the FLIPR software ScreenWorks 4.2. […]
Form field: RLU, fluorescence trace (one value per entry).
Numbers only here, please. The scale is RLU.

A selection of reference data follows.
- COMPOUND_STRUCTURE: "C[C@H](CCC(=O)NCCS(=O)(=O)O)[C@H]1CC[C@H]2[C@@H]3CC[C@@H]4C[C@H](O)CC[C@]4(C)[C@H]3CC[C@]12C"
  RLU, fluorescence trace (RLU): 122.148
- COMPOUND_STRUCTURE: "C[C@H](CCC(=O)NCCS(=O)(=O)O)[C@H]1CC[C@H]2[C@@H]3[C@H](O)C[C@@H]4C[C@H](O)CC[C@]4(C)[C@H]3C[C@H](O)[C@]12C"
  RLU, fluorescence trace (RLU): 188.074
- COMPOUND_STRUCTURE: "C[C@H](CCC(=O)O)[C@H]1CC[C@H]2[C@@H]3CC[C@@H]4C[C@H](O)CC[C@]4(C)[C@H]3C[C@H](O)[C@]12C"
  RLU, fluorescence trace (RLU): 396.715
- COMPOUND_STRUCTURE: "C[C@H](CCC(=O)O)[C@H]1CC[C@H]2[C@@H]3[C@H](O)C[C@@H]4C[C@H](O)CC[C@]4(C)[C@H]3C[C@H](O)[C@]12C"
  RLU, fluorescence trace (RLU): 248.529

In: Output RLU, fluorescence trace of C[C@H](CCC(=O)NCC(=O)O)[C@H]1CC[C@H]2[C@@H]3[C@H](O)C[C@@H]4C[C@H](O)CC[C@]4(C)[C@H]3C[C@H](O)[C@]12C
Out: 130.712

In: Output RLU, fluorescence trace of C[C@H](CCC(=O)O)[C@H]1CC[C@H]2[C@@H]3[C@@H](O)C[C@@H]4C[C@H](O)CC[C@]4(C)[C@H]3CC[C@]12C
Out: 138.907

====

- TARGET_OR_TEST_SYSTEM: mouse Tas2r105 (Mus musculus)
- Construct: expressed in transfected cells; host or cells: HEK293T-Gα16gust44
- EXPERIMENTAL_PROTOCOL: Calcium imaging assay (FLIPR), HEK293T-Gα16gust44 cells transfected with mouse Tas2r105
- Format: cell-based
- DETAILS: Time 18 s
Form field: RLU (one value per entry).
Numbers only here, please. The scale is RLU.

- COMPOUND_STRUCTURE: "C[C@H](CCC(=O)O)[C@H]1CC[C@H]2[C@@H]3CC[C@@H]4C[C@H](O)CC[C@]4(C)[C@H]3CC[C@]12C"
  QUANTITY_KIND: "RLU"
  VALUE_MEASURED: 5.571
- COMPOUND_STRUCTURE: "C[C@H](CCC(=O)O)[C@H]1CC[C@H]2[C@@H]3CC[C@@H]4C[C@H](O)CC[C@]4(C)[C@H]3C[C@H](O)[C@]12C"
  QUANTITY_KIND: "RLU"
  VALUE_MEASURED: -2.18

In: Output RLU of C[C@H](CCC(=O)NCC(=O)O)[C@H]1CC[C@H]2[C@@H]3[C@H](O)C[C@@H]4C[C@H](O)CC[C@]4(C)[C@H]3C[C@H](O)[C@]12C
Out: -16.5747

In: Output RLU of C[C@H](CCC(=O)O)[C@H]1CC[C@H]2[C@@H]3[C@H](O)C[C@@H]4C[C@H](O)CC[C@]4(C)[C@H]3C[C@H](O)[C@]12C
Out: 44.4226
